These data points were gathered from patent US20230365592A1.

Biological target: human PAH with the R408W mutation (Homo sapiens, UniProt P00439, R408W)
Construct: expressed in transfected cells
Sequence (P00439 1-452 R408W): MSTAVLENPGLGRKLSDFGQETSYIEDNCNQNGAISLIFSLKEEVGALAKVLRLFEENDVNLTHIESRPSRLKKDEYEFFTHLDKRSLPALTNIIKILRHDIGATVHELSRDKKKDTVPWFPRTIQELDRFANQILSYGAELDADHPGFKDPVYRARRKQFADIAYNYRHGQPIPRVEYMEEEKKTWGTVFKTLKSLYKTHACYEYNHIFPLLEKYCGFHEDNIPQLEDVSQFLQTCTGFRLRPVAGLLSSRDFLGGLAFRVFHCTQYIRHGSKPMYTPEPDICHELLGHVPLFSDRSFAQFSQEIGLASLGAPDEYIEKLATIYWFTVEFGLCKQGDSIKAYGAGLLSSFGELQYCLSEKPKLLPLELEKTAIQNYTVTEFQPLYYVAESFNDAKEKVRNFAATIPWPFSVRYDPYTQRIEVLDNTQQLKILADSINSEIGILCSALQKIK
Experiment: Cell Based Phenylalanine Flux Assay;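 also: after compound treatment, cells received sepiapterin plus isotope-labelled Phenylalanine for 4 hours, then labelled Tyrosine in the medium was quantified, 10-point 2-fold dilution series run in duplicate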
Details: A375 cells expressing human R408W PAH; 24 hrs compound incubation; 13C-Tyrosine by LC-MS; average where tested multiple times; read-out: AC50
PARAMETER_MEASURED: AC50

Completed entries (count: 5):
c1ccc(-c2nnc(N3CCc4[nH]cnc4[C@@H]3c3cc4ccccn4n3)o2)nc1 1000 to 5000 nM
Cc1ncccc1-c1nnc(C(=O)N2CCc3[nH]cnc3[C@H]2c2cc3c(F)cccn3n2)o1 < 500 nM
Cc1cccn2nc([C@@H]3c4nc[nH]c4CCN3C(=O)c3oc(-c4cn(C)cn4)nc3C(F)F)cc12 < 500 nM
Cc1nnc(C(=O)N2CCc3[nH]cnc3[C@H]2c2cc3c(C(F)(F)F)cccn3n2)o1 500 to 1000 nM
O=C(c1ocnc1C(F)F)N1CCc2[nH]cnc2[C@H]1c1cc2cccc(F)n2n1 < 500 nM

Quick check: AC50 of Cc1cccc2cc([C@H]3c4nc[nH]c4CCN3C(=O)c3cc(C(F)F)nn3C)nn12 ?
> 5000 nM

Quick check: AC50 of O=C(c1oc(C2(O)CC2)nc1C(F)F)N1CCc2[nH]cnc2[C@@H]1c1cc2cccc(Cl)n2n1 ?
1000 to 5000 nM

Quick check: AC50 of Cc1cccn2nc([C@H]3c4nc[nH]c4CCN3C(=O)c3nnc(-c4cccnc4)o3)cc12 ?
> 5000 nM
